- Assay Protocol: Phase 1 clinical trial: plasma pharmacokinetics
- Assay type: in vivo, human
- Particulars: human, plasma, oral, 20 mg, Cycle 1 Day 1; 20 mg, QD; cut-off April 2023; read-out: Cmax (mean)
Value Kind: Cmax (ng/mL)
Numbers only here, please. The scale is ng/mL.

Request: What value of Cmax has been recorded for this entry: CC1(C)Oc2cc(Cl)ccc2[C@@H]2OCC3(CCN(CCn4ccnc4)CC3)C[C@H]21
Result: 4

---

- Assay Protocol: Phase 1 clinical trial: plasma pharmacokinetics
- Assay type: in vivo, human
- Particulars: human, plasma, oral, 360 mg, 360 mg QD; cut-off March 2024; read-out: Effective T1/2 (converted)
- Description: Summary statistics based on preliminary data were obtained for the pharmacokinetics of Compound 1 in patients receiving once-daily doses ranging from 20 mg to 240 mg (Table 5). The mean plasma concentration-time curves of Compound 1 in the once-daily dose groups ranging from 20 mg to 240 mg are shown in Figure 11. In this study, one cycle consists of 28 days, and Cycle 1 Day 1 refers to Day 1 of the first cycle. […] Accumulation was observed after repeated administration. […]
Value Kind: half-life (min)
Numbers only here, please. The scale is min.

Request: What value of half-life has been recorded for this entry: CC1(C)Oc2cc(Cl)ccc2[C@@H]2OCC3(CCN(CCn4ccnc4)CC3)C[C@H]21
Result: 1440

These data points were gathered from patent EP4806435A1.
